All figures here come from ChEMBL document CHEMBL2311425.

Target: Histone deacetylase 5 (Homo sapiens)
Sequence (Q9UQL6 whole entry): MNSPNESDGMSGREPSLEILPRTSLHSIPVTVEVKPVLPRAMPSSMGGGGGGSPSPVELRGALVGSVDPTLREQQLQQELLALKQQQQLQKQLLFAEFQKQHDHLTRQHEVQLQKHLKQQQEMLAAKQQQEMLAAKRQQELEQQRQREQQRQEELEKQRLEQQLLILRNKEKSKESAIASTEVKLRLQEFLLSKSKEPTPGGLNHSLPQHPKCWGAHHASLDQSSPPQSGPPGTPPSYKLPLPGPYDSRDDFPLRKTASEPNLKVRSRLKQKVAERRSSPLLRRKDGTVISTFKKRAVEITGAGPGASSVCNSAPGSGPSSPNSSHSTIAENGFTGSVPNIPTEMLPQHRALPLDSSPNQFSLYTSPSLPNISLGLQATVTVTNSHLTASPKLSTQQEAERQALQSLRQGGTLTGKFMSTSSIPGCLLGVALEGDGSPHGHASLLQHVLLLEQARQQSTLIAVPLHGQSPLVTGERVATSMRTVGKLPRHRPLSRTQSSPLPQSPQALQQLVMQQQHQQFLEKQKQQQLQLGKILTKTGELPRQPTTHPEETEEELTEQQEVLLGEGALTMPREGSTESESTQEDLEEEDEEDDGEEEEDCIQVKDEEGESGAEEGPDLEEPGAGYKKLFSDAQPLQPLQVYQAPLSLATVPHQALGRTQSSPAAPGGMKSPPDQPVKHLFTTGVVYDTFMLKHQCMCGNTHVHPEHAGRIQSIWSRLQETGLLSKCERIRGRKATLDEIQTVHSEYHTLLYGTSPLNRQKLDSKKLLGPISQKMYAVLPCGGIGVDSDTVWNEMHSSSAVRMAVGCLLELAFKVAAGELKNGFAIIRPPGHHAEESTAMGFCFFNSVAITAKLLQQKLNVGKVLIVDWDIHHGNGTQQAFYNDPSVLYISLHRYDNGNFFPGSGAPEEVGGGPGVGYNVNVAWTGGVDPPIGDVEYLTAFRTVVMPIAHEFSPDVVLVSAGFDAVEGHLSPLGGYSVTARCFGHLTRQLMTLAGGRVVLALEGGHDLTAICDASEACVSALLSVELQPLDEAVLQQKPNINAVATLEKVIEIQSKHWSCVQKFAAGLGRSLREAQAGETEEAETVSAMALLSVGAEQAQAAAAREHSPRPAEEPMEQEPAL
ENDPOINT: IC50 (nM)

A = Cc1ccc(C(=O)NOCCCCCC(=O)NO)cc1C
B = Cc1cc(C)cc(C(=O)NOCCCCCC(=O)NO)c1
Which of the two gives a bigger number for IC50: A or B ? // output: label of the selected item A
(A: 33.4 nM, B: 4.22 nM)

====

Target: Histone deacetylase 4 (Homo sapiens, UniProt P56524)
Sequence (P56524 whole entry): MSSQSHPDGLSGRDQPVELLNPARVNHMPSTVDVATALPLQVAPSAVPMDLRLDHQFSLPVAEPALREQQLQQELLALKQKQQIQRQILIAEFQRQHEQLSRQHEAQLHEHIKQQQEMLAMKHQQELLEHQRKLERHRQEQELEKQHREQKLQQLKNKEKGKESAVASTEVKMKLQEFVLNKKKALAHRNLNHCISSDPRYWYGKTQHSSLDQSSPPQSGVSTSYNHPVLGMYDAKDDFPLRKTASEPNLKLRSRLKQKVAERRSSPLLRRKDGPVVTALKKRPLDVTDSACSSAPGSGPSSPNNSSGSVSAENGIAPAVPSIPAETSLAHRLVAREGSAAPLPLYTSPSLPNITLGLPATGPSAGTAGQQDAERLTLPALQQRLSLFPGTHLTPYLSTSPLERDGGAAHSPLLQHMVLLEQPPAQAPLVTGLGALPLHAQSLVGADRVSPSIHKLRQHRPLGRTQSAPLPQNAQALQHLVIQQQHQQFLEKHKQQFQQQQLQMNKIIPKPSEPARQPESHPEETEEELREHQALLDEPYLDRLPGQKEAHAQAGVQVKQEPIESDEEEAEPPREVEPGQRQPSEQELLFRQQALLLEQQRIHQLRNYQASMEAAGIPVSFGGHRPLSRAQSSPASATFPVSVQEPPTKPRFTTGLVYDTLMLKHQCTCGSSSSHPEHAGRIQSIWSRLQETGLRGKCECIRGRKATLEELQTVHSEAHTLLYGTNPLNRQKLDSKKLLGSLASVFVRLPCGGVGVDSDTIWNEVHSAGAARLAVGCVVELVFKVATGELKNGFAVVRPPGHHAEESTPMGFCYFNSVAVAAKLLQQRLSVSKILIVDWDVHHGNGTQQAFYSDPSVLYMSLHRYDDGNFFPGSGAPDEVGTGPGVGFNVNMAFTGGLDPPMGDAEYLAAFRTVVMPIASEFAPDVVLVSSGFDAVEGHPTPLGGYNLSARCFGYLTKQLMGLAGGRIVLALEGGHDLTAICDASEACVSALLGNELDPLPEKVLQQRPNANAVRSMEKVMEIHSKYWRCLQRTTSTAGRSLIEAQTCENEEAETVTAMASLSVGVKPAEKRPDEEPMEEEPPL
ENDPOINT: IC50 (nM)

[
  {
    "SMILES_DATA": "Cc1cccc(C(=O)NOCCCCCC(=O)NO)c1",
    "IC50, nM": 16.3
  },
  {
    "SMILES_DATA": "Cc1cc(C)cc(C(=O)NOCCCCCC(=O)NO)c1",
    "IC50, nM": 11.9
  }
]

====

Tested on: A2780 CisR (Homo sapiens)
Assay: cells
Conditions: 72 h
ENDPOINT: IC50 (µM)

Consider the worked cases shown below.
[
  {
    "SMILES_DATA": "Cc1ccccc1NC(=O)NOCCCCCC(=O)NO",
    "QUANTITATIVE_READOUT": 30.1
  },
  {
    "SMILES_DATA": "Cc1ccc(NC(=O)NOCCCCCC(=O)NO)cc1",
    "QUANTITATIVE_READOUT": 10.2
  }
]

A = Cc1cccc(NC(=O)NOCCCCCC(=O)NO)c1
B = Cc1ccccc1C(=O)NOCCCCCC(=O)NO
C = CC(C)c1ccc(C(=O)NOCCCCCC(=O)NO)cc1
Give the ascending ranking of the items by reported IC50. # output: labels, in the requested order C, A, B
(C: 4.96 µM, A: 8.12 µM, B: 33.8 µM)

====

Molecular target: Histone deacetylase
Test: Inhibition of HDAC in human A2780 cells after 18 hrs by fluorescence assay
Type: cell-based
ENDPOINT: IC50 (µM)

Consider the worked cases shown below.
[
  {
    "SMILES_DATA": "O=C(CCCCCONC(=O)NNc1ccccc1)NO",
    "IC50 (µM)": 5.86
  },
  {
    "SMILES_DATA": "O=C(CCCCONC(=O)Nc1ccccc1)NO",
    "IC50 (µM)": 15.2
  },
  {
    "SMILES_DATA": "Cc1cc(C)cc(NC(=O)NOCCCCCC(=O)NO)c1",
    "IC50 (µM)": 5.27
  },
  {
    "SMILES_DATA": "O=C(CCCCCONC(=O)c1ccccc1)NO",
    "IC50 (µM)": 1.58
  }
]

A = Cc1cccc(NC(=O)NOCCCCCC(=O)NO)c1
B = O=C(CCCCCONC(=O)c1ccc(F)cc1)NO
Which of the two gives a bigger number for IC50: A or B ? // output: label of the selected item A

====

Test system: A2780 CisR (Homo sapiens)
Test: cells
Conditions: 72 h
pIC50: −log10 of the molar value.
ENDPOINT: pIC50

1 = O=C(CCCCCONC(=O)c1ccc(C(F)(F)F)cc1)NO
2 = Cc1cc(C)cc(C(=O)NOCCCCCC(=O)NO)c1
3 = CC(C)c1ccc(NC(=O)NOCCCCCC(=O)NO)cc1
Order the entries by their reported pIC50, beginning at the minimum. # output: labels, in the requested order 3, 1, 2

A = CC(/C=C/C(=O)NO)=C\[C@@H](C)C(=O)c1ccc(N(C)C)cc1 [TRICHOSTATIN]
B = Cc1cc(C)cc(NC(=O)NOCCCCCC(=O)NO)c1
// returns A or B , whichever has the lower pIC50 // output: label of the selected item B
